Tested on: UACC-257 melanoma
Test Name: NCI-60 one-dose screen, 48 h (100 = growth as untreated, 0 = no growth, -100 = all killed)
Condition Context: 10 µM unless noted
About 83,000 compounds went through this panel and 20% of them were active in at least one assay; those are over-represented in the sample as a whole.
Overview of reported growth across a group of molecules:
Answer with a number only, understood to be in %.

# Molecule, Study System, growth / %
records = [
    ("Cc1nn2c(-c3nc4ccc(Cl)cc4[nH]3)c(-c3ccc(F)cc3)nc2s1", "UACC-257 melanoma", 92.9),
    ("CCOC(=O)c1cn2c3c(cc(F)cc3c1=O)C(CC)c1ccccc1C2 (stereo not given)", "UACC-257 melanoma", 96.3),
]

Summary for this molecule, Cc1c(C)n(CC(O)CNC2CCCCC2C)c2ccccc12 (stereo not given) : growth is -75.8

The reported growth of the molecule `CCOC(=O)n1cc(C2=C(c3cn(C)c4ccccc34)COC2=O)c2ccccc21` was 55.1

Entry `O=C1Nc2ccc(Cl)cc2/C1=N/N=C(c1ccccc1)c1ccccc1` ; growth = 98.5

The measured growth associated with `Nc1nc(N)c(N=Nc2c(Br)cc(S(N)(=O)=O)cc2Br)c(N)n1` reads 98.7

growth in this record for `COc1ccc(-c2[nH]ncc2Nc2cc(OC)c(OC)c(OC)c2)cc1` : 66.5

growth reported for this molecule `O=C(NCc1cccnc1)c1ccc([N+](=O)[O-])o1` : -7.66

Record summary for O=C1OCC2=C1C(c1ccc3c(c1)OCO3)CC(=O)N2c1cccc(Cl)c1 (stereo not given) : reported growth = 104

molecule `Cc1oc2c(c1C(=O)N1CC[C@@H](N)C1)C(=O)c1c(c(O)c3ccccc3c1O)C2=O` , growth observed: 74.8

* * *

System: OVCAR-3 ovarian
Test Name: NCI-60 one-dose screen, 48 h (100 = growth as untreated, 0 = no growth, -100 = all killed)
Condition Context: 10 µM unless noted
This is part of a sample that, as a whole, favours compounds with a hit. Of some 83,000 tested, about 20% had one in any assay.
Listed next: entries and their corresponding growth.
Could you give me the number in %? Just the number is fine.

# Molecule, Study System, Reported Value
records = [
    ("COc1cccc(-c2ccc3c(c2)C2CCN(Cc4ccccc4)C3C2)c1 (stereo not given)", "OVCAR-3 ovarian", 72.2),
]

Field: next molecule
The recorded growth for O=C(c1ccccc1)C(Br)C(Br)c1cccc([N+](=O)[O-])c1 (stereo not given) is -23.4

* * *

Tested on: ACHN renal
Test Name: NCI-60 one-dose screen, 48 h
Condition Context: 10 µM unless noted
About 83,000 compounds went through this panel and 20% of them were active in at least one assay; those are over-represented in the sample as a whole. Activity calls are given as the source filed them. Rule for the calls: active = growth percent below 10; inactive = the rest.
Respond using exactly one of the listed classes: true for active, false for inactive

Please review the entries below; each comes with its answer.
# Compound, Study System, Class Assignment
records = [
    ("O=c1c2cc(F)ccc2oc2c(NCCNCCO)nc3ccccc3c12", "ACHN renal", "false"),
    ("COc1cc(/C=C/C(=O)C2=C(/C=C/c3ccc(O)c(OC)c3)NC(=O)NC2c2ccc(O)c(OC)c2)ccc1O (stereo unspecified)", "ACHN renal", "false"),
    ("Oc1cccc(Nc2nc(-c3ccccn3)cs2)c1", "ACHN renal", "false"),
    ("CC(=O)Nc1ccc(Sc2ccc([N+](=O)[O-])o2)cc1", "ACHN renal", "true"),
    ("COc1cc(Cn2cc(F)c(=O)[nH]c2=O)cc(OC)c1", "ACHN renal", "false"),
]

Outcome logged for COc1ccc(OC)c(C2C(C#N)=C(N)Oc3cc(O)ccc32)c1 (stereo unspecified) in this assay: false

Fill in: this test's call for `Cc1ccc(C)c2c1sc1nc3nc4sc5ccccc5n4c(=N)c3c(=O)n12` is ___ false

Could you check what this test reported for COc1ccc(OC2=C(C#N)C(=N)N3c4ccccc4Sc4ccccc4C3N2)cc1 (stereo unspecified) ? false

I'd appreciate the recorded outcome for `O=c1[nH]c(=S)[nH]c(=O)n1Cc1cccc2ccccc12` from this test. false

What did this assay record as the result for COc1ccc(C2=NOC(CC(=O)N(CCO)CCO)C2)cc1OC1CCCC1 (stereo unspecified) ? false

# lookup: test call for `COCCOC1=C(Cl)C(=O)c2ccccc2C1=O` false
